- target-under-test: T1, human BCMA protein (human, UniProt Q02223 1-54, limits assumed)
- T1 sequence: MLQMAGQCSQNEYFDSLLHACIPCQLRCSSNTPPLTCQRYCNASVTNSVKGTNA
- experimental-details: affinity to human BCMA protein, method not stated
reported-endpoint: Kd (nM)
Return type: number; implicit unit nM.

| binder | observed-measurement |
| --- | --- |
| BCMA targeting trispecific protein 02G08 (other, not shown: large carriers; small tags and cut ends, trispecific) VHH: EVQLVESGGGLVQPGRSLTLSCAASTNIDSISPMGWYRQAPGKQRELVAAIHGESTLYADSVKGRFTISRDNAKNSIYLQMNSLRPEDTALYYCNKVPWGDYHPRNVTWGQGTQVTVSS | 18 |

Lookup: Sample BCMA targeting trispecific protein 02F05 (other, not shown: large carriers; small tags and cut ends, trispecific) VHH: EVQLVESGGGLVQPGRSLTLSCAASTNIFSVSPMGWYRQAPGKQRELVAAIHGNSTLYADSVKGRFTISRDNAKNSIYLQMNSLRPEDTALYYCNKVPWGKYHPRNVYWGQGTQVTVSS — what was its Kd?
Found: 7.15
